B1: POU domain, class 4, transcription factor 1, residues 266 to 347; numbered along this chain, Q01851 (parent)
chain: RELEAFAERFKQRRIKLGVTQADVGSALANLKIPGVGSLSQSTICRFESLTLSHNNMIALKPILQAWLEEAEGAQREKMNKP

variants of: B1; experiment: abundance fitness (aPCA) (normalised: wild type 0, dead -1); higher = more abundant; growth selection in yeast, the domain comes from the species named; details: Homo sapiens
observable: abundance fitness
One number for each entry.

# count of solved cases: 2
>  <record_sequence>
RELEAFAERFKQRRIKLGVTQADVGSALWNLKIPGVGSLSQSTICRFESLTLSHNNMIALKPILQAWLEEAEGAQREKMNKP [A29W]

>  <observable>
abundance fitness

>  <value_measured>
-0.605

$$$$
>  <record_sequence>
RELEAFAERFKQRRIKLGVTQADVGSALANLKIPGVGSLSQSTICRFESLTLSHNNMIALKPILQAWLEEREGAQREKMNKP [A71R]

>  <observable>
abundance fitness

>  <value_measured>
-0.051

$$$$

Now for the variant whose abundance fitness we want.
(Q) Reported abundance fitness, variant RELEAFAERFKQRRIKLGVTQADVGVALANLKIPGVGSLSQSTICRFESLTLSHNNMIALKPILQAWLEEAEGAQREKMNKP [S26V] : ____
(A) -0.049
